assay: RP, Waters CORTECS UPLC C18, 100 × 2.1 mm, 1.6 µm, 40 °C, 0.4 mL/min, estimated dead time 0.55 min; A: water + 0.1% formic acid, pH 3; B: acetonitrile + 0.1% formic acid, pH 3; gradient (min/%B) 0/5 1.12/5 6.41/99.5 10.01/99.5; details: stereoisomer not certain
Entries whose LC retention time is below 5 min take rule met; entries at or above 5 min take rule not met.

## Task Threshold test, LC retention time < 5 min: Cc1ncc(CO)c(C(=O)O)c1O [4-PYRIDOXATE]
## Result rule met

## Task Threshold test, LC retention time < 5 min: CC1NCCc2cc(O)c(O)cc21 (centres undefined)
## Result rule met

## Task Threshold test, LC retention time < 5 min: `O=C(NC(=O)c1c(F)cccc1F)Nc1cc(Cl)c(OC(F)(F)C(F)F)c(Cl)c1`
## Result rule not met

## Task Threshold test, LC retention time < 5 min: `CCOC(=O)N(C)C(=O)CSP(=S)(OCC)OCC`
## Result rule not met

## Task Threshold test, LC retention time < 5 min: NC(=O)Cc1c[nH]c2ccccc12 [INDOLE-3-ACETAMIDE]
## Result rule met

## Task Threshold test, LC retention time < 5 min: CC12CCC(=O)C=C1CCC1C2C(O)CC2(C)C1CCC2(O)C(=O)CO (centres undefined)
## Result rule met

## Task Threshold test, LC retention time < 5 min: CC(=O)OCC(=O)C1CCC2C3CCC4=CC(=O)CCC4(C)C3CCC12C (centres undefined) [DEOXYCORTICOSTERONE ACETATE]
## Result rule not met

----------
experiment: RP, Waters CORTECS UPLC C18, 100 × 2.1 mm, 1.6 µm, 40 °C, 0.4 mL/min, estimated dead time 0.55 min; A: water + 0.1% formic acid, pH 3; B: acetonitrile + 0.1% formic acid, pH 3; gradient (min/%B) 0/5 1.12/5 6.41/99.5 10.01/99.5; settings: stereoisomer not certain
Entries whose LC retention time is below 3 min take class 1; entries at or above 3 min take class 0.

## Task Threshold test, LC retention time < 3 min: CN(C)C(=O)Nc1ccc(Oc2ccc(Cl)cc2)cc1 [Chloroxuron]
## Result class 0

## Task Threshold test, LC retention time < 3 min: CCCCC(C#N)(Cn1cncn1)c1ccc(Cl)cc1 (centres undefined) [Myclobutanil]
## Result class 0

## Task Threshold test, LC retention time < 3 min: CC(=O)NC(Cc1c[nH]c2ccccc12)C(=O)O (centres undefined) [N-ACETYLTRYPTOPHAN]
## Result class 0

## Task Threshold test, LC retention time < 3 min: CC(CCC(=O)O)C(=O)O (centres undefined) [2-METHYLGLUTARATE]
## Result class 1

## Task Threshold test, LC retention time < 3 min: CCCCCCCCCC(=O)OC(CC(=O)[O-])C[N+](C)(C)C [Decanoyl-L-carnitine]
## Result class 0

## Task Threshold test, LC retention time < 3 min: Cc1nn(-c2cc(NS(C)(=O)=O)c(Cl)cc2Cl)c(=O)n1C(F)F [Sulfentrazone]
## Result class 0

## Task Threshold test, LC retention time < 3 min: CCCCCCCCCCCCCCCCCCCC[n+]1cccc(S(=O)(=O)[O-])c1 [C20-APS]
## Result class 0

## Task Threshold test, LC retention time < 3 min: Nc1cc(C(=O)O)ccc1O [3-AMINO-4-HYDROXYBENZOATE]
## Result class 1

## Task Threshold test, LC retention time < 3 min: CNC(=O)Oc1cc(C)c(N(C)C)c(C)c1 [Mexacarbate]
## Result class 1

## Task Threshold test, LC retention time < 3 min: CCOC(=O)CCN(SN(C)C(=O)Oc1cccc2c1OC(C)(C)C2)C(C)C [Benfuracarb]
## Result class 0

## Task Threshold test, LC retention time < 3 min: CC(C)(C)C(O)C(Cc1ccc(Cl)cc1)n1cncn1 (centres undefined) [Paclobutrazol]
## Result class 0

## Task Threshold test, LC retention time < 3 min: OCC1OC(O)C(O)C1O (centres undefined) [RIBOSE]
## Result class 1

## Task Threshold test, LC retention time < 3 min: CCCCCCCCCCCCCC(=O)OC(CC(=O)[O-])C[N+](C)(C)C [Myristoyl-L-carnitine]
## Result class 0

## Task Threshold test, LC retention time < 3 min: CCCCCCCCCCCCCCCC[n+]1cccc(S(=O)(=O)[O-])c1 [C16-APS]
## Result class 0

## Task Threshold test, LC retention time < 3 min: O=CC(O)C(O)C(O)CO (centres undefined) [ARABINOSE]
## Result class 1

## Task Threshold test, LC retention time < 3 min: COC=C(C(=O)OC)c1ccccc1COc1cccc(C(F)(F)F)n1 [Picoxystrobin]
## Result class 0

## Task Threshold test, LC retention time < 3 min: COc1cc(C)c(C(=O)c2c(OC)ccc(Br)c2C)c(OC)c1OC [Metrafenone]
## Result class 0

## Task Threshold test, LC retention time < 3 min: CCN(CC)C(=O)C(Cl)=C(C)OP(=O)(OC)OC (mixture of isomers) [Phospamidon (Mix of isomers)]
## Result class 0

## Task Threshold test, LC retention time < 3 min: OC(Cn1cncn1)(c1ccc(F)cc1)c1ccccc1F (centres undefined) [Flutriafol]
## Result class 0

----------
assay: RP, Waters CORTECS UPLC C18, 100 × 2.1 mm, 1.6 µm, 40 °C, 0.4 mL/min, estimated dead time 0.55 min; A: water + 0.1% formic acid, pH 3; B: acetonitrile + 0.1% formic acid, pH 3; gradient (min/%B) 0/5 1.12/5 6.41/99.5 10.01/99.5; conditions: stereoisomer not certain
I would appreciate it if you labelled entries 1 (yes) when LC retention time is 3 min or higher, otherwise 0 (no).

## Task Hello, I need to know if CCCCCCCCC=CCCCCCCCC(=O)OC(CC(=O)[O-])C[N+](C)(C)C (stereo not given) has measured LC retention time not below 3 min. Thanks!
## Result 1 (yes)

## Task Hello, I need to know if CC(C)CCCC(C)C1CCC2C3=CC=C4CC(O)CCC4(C)C3CCC21C (stereo not given) [7-dehydrocholesterol] has measured LC retention time not below 3 min. Thanks!
## Result 1 (yes)

## Task Hello, I need to know if `Cn1c(=O)c2c(ncn2C)n(C)c1=O` has measured LC retention time not below 3 min. Thanks!
## Result 0 (no)

## Task Hello, I need to know if CC1(C)CN=C(NN=C(C=Cc2ccc(C(F)(F)F)cc2)C=Cc2ccc(C(F)(F)F)cc2)NC1 [Hydramethylnon (Amdro)] has measured LC retention time not below 3 min. Thanks!
## Result 1 (yes)

## Task Hello, I need to know if CSCCC(NC(C)=O)C(=O)O (stereo not given) has measured LC retention time not below 3 min. Thanks!
## Result 0 (no)

## Task Hello, I need to know if COC(=O)CCCC(=O)O [MONOMETHYLGLUTARATE] has measured LC retention time not below 3 min. Thanks!
## Result 0 (no)

## Task Hello, I need to know if CCCCc1c(C)nc(NCC)nc1OS(=O)(=O)N(C)C [Bupirimate] has measured LC retention time not below 3 min. Thanks!
## Result 1 (yes)

## Task Hello, I need to know if CC(C)(C)C(O)(CCc1ccc(Cl)cc1)Cn1cncn1 (stereo not given) has measured LC retention time not below 3 min. Thanks!
## Result 1 (yes)

## Task Hello, I need to know if `O=C(O)C=Cc1c[nH]c2ccccc12` has measured LC retention time not below 3 min. Thanks!
## Result 1 (yes)

## Task Hello, I need to know if CC1OC(n2cnc3c(N)ncnc32)C(O)C1O (stereo not given) has measured LC retention time not below 3 min. Thanks!
## Result 0 (no)

## Task Hello, I need to know if O=C(O)c1ccccc1 [BENZOATE] has measured LC retention time not below 3 min. Thanks!
## Result 0 (no)

## Task Hello, I need to know if CC(C)C(=O)OC(CC(=O)[O-])C[N+](C)(C)C (stereo not given) has measured LC retention time not below 3 min. Thanks!
## Result 0 (no)

## Task Hello, I need to know if `CCNc1nc(Cl)nc(N(CC)CC)n1` has measured LC retention time not below 3 min. Thanks!
## Result 1 (yes)

## Task Hello, I need to know if COc1ccc(-c2ccccc2)cc1NNC(=O)OC(C)C [Bifenazate] has measured LC retention time not below 3 min. Thanks!
## Result 1 (yes)

## Task Hello, I need to know if NCC(O)c1ccccc1 (stereo not given) has measured LC retention time not below 3 min. Thanks!
## Result 0 (no)

## Task Hello, I need to know if `O=C(O)C(=O)Cc1ccccc1` has measured LC retention time not below 3 min. Thanks!
## Result 0 (no)

## Task Hello, I need to know if `CCOC(=O)CCN(Cc1ccccc1)SN(C)C(=O)ON=C(C)SC` has measured LC retention time not below 3 min. Thanks!
## Result 1 (yes)

----------
assay: RP, Waters CORTECS UPLC C18, 100 × 2.1 mm, 1.6 µm, 40 °C, 0.4 mL/min, estimated dead time 0.55 min; A: water + 0.1% formic acid, pH 3; B: acetonitrile + 0.1% formic acid, pH 3; gradient (min/%B) 0/5 1.12/5 6.41/99.5 10.01/99.5; conditions: stereoisomer not certain
observation type: LC retention time (min)
The answer is to be given in min; state only the numeric part.

## Task // returns reported LC retention time for input CCC1CCCC(OC2CCC(N(C)C)C(C)O2)C(C)C(=O)C2=CC3C(C=CC4CC(OC5OC(C)C(OC)C(OC)C5OC)CC43)C2CC(=O)O1 (centres undefined) [Spinosad A & D]
## Result 4.76

## Task // returns reported LC retention time for input CC(CC(=O)[O-])CC(=O)OC(CC(=O)O)C[N+](C)(C)C (centres undefined) [3-Methylglutarylcarnitine]
## Result 2.25

## Task // returns reported LC retention time for input CC(CCCC(C)C1CCC2C3C(O)CC4=CC(=O)CCC4(C)C3CCC12C)C(=O)O (centres undefined) [7-Hydroxy-3-oxo-Cholest-4-en-26-oic Acid]
## Result 5.53

## Task // returns reported LC retention time for input O=C(O)c1ccc(O)c(O)c1 [3,4-DIHYDROXYBENZOATE]
## Result 1.66
